Test system: HCV replication
ASSAY REMARKS: HCV replicon assay (luciferase), ET (Huh-lucubineo-ET) cell line
Type: cell-based
MEASUREMENT SETUP: Hepatitis C virus; tested at 10 μM; ET (Huh-lucubineo-ET) replicon cells; luciferase activity 48-72 hours; relative to no compound control
MEASURED PARAMETER: inhibition at 10 µM (%)
Give bare numbers, in %.

Some solved cases for reference:
### Prompt Tell me its inhibition at 10 µM given O=C(OCc1ccccc1)N1CCC[C@H]1c1nc2ccc(-c3ccc4ccccc4c3)cc2[nH]1 [Compound 4011] as the entry.
### Response 87

### Prompt Tell me its inhibition at 10 µM given O=C(OCc1ccccc1)N1CCC[C@H]1c1nc2ccc(-c3cccc4cc[nH]c34)cc2[nH]1 [Compound 4014] as the entry.
### Response 12.7

### Prompt Tell me its inhibition at 10 µM given O=C(Nc1ccc(-c2cccc(C#C[C@@H]3CCCN3C(=O)OCc3ccccc3)c2)cc1)C1CC1 [Compound 4004] as the entry.
### Response 81.8

Please look at the items below and tell me inhibition at 10 µM for each one, in order.
1. CC(=O)c1cccc(-c2ccc3nc([C@@H]4CCCN4C(=O)OCc4ccccc4)[nH]c3c2)c1 [Compound 4045]
2. O=C(Cc1ccc(-c2cccc(C#C[C@@H]3CCCN3C(=O)OCc3ccccc3)c2)cc1)NC1CC1 [Compound 4024]
3. O=C(Cc1cccc(-c2ccc([C@@H]3CCCN3C(=O)OCc3ccccc3)cc2)c1)NC1CC1 (stereo in doubt) [Compound 4043]

### Response
1. 99.8
2. 45.9
3. 40

### Prompt Tell me its inhibition at 10 µM given O=C(OCc1ccccc1)N1CCC[C@H]1c1nc2ccc(-c3cccs3)cc2[nH]1 [Compound 4029] as the entry.
### Response 78.1
